# System: HEK-293T
# assayInfo: Multiplex assay against HEK293T
# Format: toxicity, cell-based
# runParameters: human, 24 h, 1 µM, compound concentration 1 uM
recordedEndpoint: Population Normal (%)
Phrase the answer as number then unit, nothing more needed.

Use the examples below as a reference point.
structurenotation=CN1CCN(c2nc3cc(C(F)(F)F)ccc3n3cccc23)CC1.O=C(O)/C=C\C(=O)O.O=C(O)/C=C\C(=O)O datavalue=93%
structurenotation=O=C(NCc1cccc(O)c1)Nc1nc(-c2ccncc2)cs1 datavalue=100%

Recorded Population Normal (%) of CN(C)CCCn1cc(C2=C(c3c[nH]c4ccccc34)C(=O)NC2=O)c2ccccc21 , please.
100%

---

Measured Population Normal (%) of individual entries
# System: HEK-293T
# assayInfo: Multiplex assay against HEK293T
# Assay type: toxicity, cell-based
# runParameters: human, 12 h, 1 µM, compound concentration 1 uM
Reply numerically in %, unit not repeated.

As a guide, the following entries are already answered.
compound=CN1CCN(c2cc(-c3ccccc3)nc(N)n2)CC1 datavalue=93
compound=Cn1ncnc1COc1nn2c(-c3cc(F)ccc3F)nnc2cc1C(C)(C)C datavalue=100
compound="CC(C)(O)c1cnc(N2C[C@@]3(CCC[C@](C)(Cn4cnc5ccc(C#N)cc54)C3)OC2=O)cn1 [GSK2798745]" datavalue=100

Please report the recorded Population Normal (%) for CN1C[C@H](C(=O)N[C@]2(C)O[C@@]3(O)[C@@H]4CCCN4C(=O)[C@H](Cc4ccccc4)N3C2=O)C[C@@H]2c3cccc4[nH]cc(c34)C[C@H]21.CS(=O)(=O)O [DIHYDROERGOTAMINE MESYLATE] .
94

Using the record for CN(C)Cc1cccc(NC(=C2C(=O)Nc3cc(C(=O)N(C)C)ccc32)c2ccccc2)c1 , report its Population Normal (%).
100

Please give the measured Population Normal (%) for this compound: c1cc(OCCCN2CCCCC2)ccc1CN1CCCCC1 [JNJ-5207852]
94

// returns reported Population Normal (%) for input Cc1ccc(-c2ccc(F)cc2COc2ccc(CCC(=O)O)cc2)cc1
90

Entry under review: O=C(Nc1cc(C(F)(F)F)ccc1N1CCCCC1)c1ccncc1 . Reported Population Normal (%)?
100

---

# System: U2OS
# assayInfo: Multiplex assay against U2OS
# Type: toxicity, cell-based
# runParameters: human, 48 h, 10 µM, compound concentration 10 uM
Form field: Population Normal (%) (one value per entry).
Please respond with the number in % and leave the unit unwritten.

Please review the following examples before continuing.
molecule="Cc1cc(Nc2ncc(Cl)c(Nc3ccccc3S(=O)(=O)C(C)C)n2)c(OC(C)C)cc1C1CCNCC1 [CERITINIB]" experimentaltarget=U2OS recordedendpoint="Population Normal (%)" unit=% datavalue=100
molecule=COc1cc(/C=C(\C#N)C(=O)Nc2nnc(C(F)(F)F)s2)ccc1OCc1ccc(C(F)(F)F)cc1C(F)(F)F experimentaltarget=U2OS recordedendpoint="Population Normal (%)" unit=% datavalue=100
molecule="C=CC(=O)Nc1cc(Nc2nccc(-n3cc(CN(C)C)c(-c4ccccc4)n3)n2)c(OC)cc1N1CCOCC1 [LAZERTINIB]" experimentaltarget=U2OS recordedendpoint="Population Normal (%)" unit=% datavalue=100

U2OS / Population Normal (%) / CC(=O)NCC(=O)N1[C@@H]2CC[C@H]1c1ccc(Nc3ncc(C(F)(F)F)c(NC4CCC4)n3)cc12 [PF-03814735] : value?
100
